Cited source for all entries: paper PMC2882366

# Protocol Details: Rapamycin whole blood pharmacokinetics (HPLC-MS/MS, non-compartmental) in dogs with osteosarcoma
# Format: in vivo, dog
# Details: dog; 0.02 mg/kg IM, after first dose, whole blood, median (range), N=4; read-out: AUC0–48
Result Type: AUC(0-t) (ng·h/mL)
Write down the numeric answer in ng·h/mL and omit the unit.

Which AUC(0-t) value belongs to CO[C@H]1C[C@@H]2CC[C@@H](C)[C@@](O)(O2)C(=O)C(=O)N2CCCC[C@H]2C(=O)O[C@H]([C@H](C)C[C@@H]2CC[C@@H](O)[C@H](OC)C2)CC(=O)[C@H](C)/C=C(\C)[C@@H](O)[C@@H](OC)C(=O)[C@H](C)C[C@H](C)/C=C/C=C/C=C/1C [rapamycin, Rapamycin] ?
64.3

* * *

# Protocol Details: Rapamycin whole blood pharmacokinetics (HPLC-MS/MS, non-compartmental) in dogs with osteosarcoma
# Format: in vivo, dog
# Details: dog, whole blood, intramuscular; 0.01 mg/kg IM, 48 h after first dose, median (range), N=3; read-out: C48h
Result Type: concentration at 48 h (ng/mL)
Write down the numeric answer in ng/mL and omit the unit.

Which concentration at 48 h value belongs to CO[C@H]1C[C@@H]2CC[C@@H](C)[C@@](O)(O2)C(=O)C(=O)N2CCCC[C@H]2C(=O)O[C@H]([C@H](C)C[C@@H]2CC[C@@H](O)[C@H](OC)C2)CC(=O)[C@H](C)/C=C(\C)[C@@H](O)[C@@H](OC)C(=O)[C@H](C)C[C@H](C)/C=C/C=C/C=C/1C ?
0.91

* * *

# Protocol Details: Rapamycin whole blood pharmacokinetics (HPLC-MS/MS, non-compartmental) in dogs with osteosarcoma
# Type: in vivo, dog
# Details: dog, whole blood, intramuscular; 0.02 mg/kg IM daily, Day 15 (seven days after cessation), median (range), N=4; read-out: CD15
# Method: Subsequent doses were administered on days 3–8. Additional pharmacokinetic samples were obtained on days 8 (192h, day of definitive resection) and 9 (hr 216, after last day of dosing) and 15 (360 hr). […] Whole blood was transferred to cyrovials and stored at −80°C until analysis. […] The eluate was analyzed using HPLC with MS/MS detection. […] Clinical sample results were calculated using peak area ratios and calibration curves were generated using a weighted (1/x^2) linear least-squares regression. […]
Result Type: concentration at 15 day (ng/mL)
Write down the numeric answer in ng/mL and omit the unit.

Which concentration at 15 day value belongs to CO[C@H]1C[C@@H]2CC[C@@H](C)[C@@](O)(O2)C(=O)C(=O)N2CCCC[C@H]2C(=O)O[C@H]([C@H](C)C[C@@H]2CC[C@@H](O)[C@H](OC)C2)CC(=O)[C@H](C)/C=C(\C)[C@@H](O)[C@@H](OC)C(=O)[C@H](C)C[C@H](C)/C=C/C=C/C=C/1C ?
0.86

* * *

# Protocol Details: Rapamycin whole blood pharmacokinetics (HPLC-MS/MS, non-compartmental) in dogs with osteosarcoma
# Format: in vivo, dog
# Details: dog, whole blood; 0.06 mg/kg IM, after first dose, median (range), N=7
Result Type: Tmax (h)
Write down the numeric answer in h and omit the unit.

Which Tmax value belongs to CO[C@H]1C[C@@H]2CC[C@@H](C)[C@@](O)(O2)C(=O)C(=O)N2CCCC[C@H]2C(=O)O[C@H]([C@H](C)C[C@@H]2CC[C@@H](O)[C@H](OC)C2)CC(=O)[C@H](C)/C=C(\C)[C@@H](O)[C@@H](OC)C(=O)[C@H](C)C[C@H](C)/C=C/C=C/C=C/1C [rapamycin, Rapamycin] ?
6

* * *

# Protocol Details: Rapamycin whole blood pharmacokinetics (HPLC-MS/MS, non-compartmental) in dogs with osteosarcoma
# Assay type: in vivo, dog
# Details: dog, whole blood, intramuscular; 0.01 mg/kg IM daily, trough Day 8, median (range), N=3; read-out: CD8
Result Type: concentration at 8 day (ng/mL)
Write down the numeric answer in ng/mL and omit the unit.

Which concentration at 8 day value belongs to CO[C@H]1C[C@@H]2CC[C@@H](C)[C@@](O)(O2)C(=O)C(=O)N2CCCC[C@H]2C(=O)O[C@H]([C@H](C)C[C@@H]2CC[C@@H](O)[C@H](OC)C2)CC(=O)[C@H](C)/C=C(\C)[C@@H](O)[C@@H](OC)C(=O)[C@H](C)C[C@H](C)/C=C/C=C/C=C/1C ?
2.78

* * *

# Protocol Details: Rapamycin whole blood pharmacokinetics (HPLC-MS/MS, non-compartmental) in dogs with osteosarcoma
# Format: in vivo, dog
# Details: dog; 0.08 mg/kg IM, after first dose, whole blood, median (range), N=4
# Experimental: Subsequent doses were administered on days 3–8. Additional pharmacokinetic samples were obtained on days 8 (192h, day of definitive resection) and 9 (hr 216, after last day of dosing) and 15 (360 hr). […] Whole blood was transferred to cyrovials and stored at −80°C until analysis. […] The eluate was analyzed using HPLC with MS/MS detection. […] Clinical sample results were calculated using peak area ratios and calibration curves were generated using a weighted (1/x^2) linear least-squares regression. […]
Result Type: Cmax (ng/mL)
Write down the numeric answer in ng/mL and omit the unit.

Which Cmax value belongs to CO[C@H]1C[C@@H]2CC[C@@H](C)[C@@](O)(O2)C(=O)C(=O)N2CCCC[C@H]2C(=O)O[C@H]([C@H](C)C[C@@H]2CC[C@@H](O)[C@H](OC)C2)CC(=O)[C@H](C)/C=C(\C)[C@@H](O)[C@@H](OC)C(=O)[C@H](C)C[C@H](C)/C=C/C=C/C=C/1C ?
12.1

* * *

# Protocol Details: Rapamycin whole blood pharmacokinetics (HPLC-MS/MS, non-compartmental) in dogs with osteosarcoma
# Type: in vivo, dog
# Details: Mixed Breed (2 dogs), Boxer (1 dog), dog, whole blood; 0.04 mg/kg IM, after first dose, median (range), N=3
Result Type: Tmax
Hey, just the number and the unit after it is fine.

Which Tmax value belongs to CO[C@H]1C[C@@H]2CC[C@@H](C)[C@@](O)(O2)C(=O)C(=O)N2CCCC[C@H]2C(=O)O[C@H]([C@H](C)C[C@@H]2CC[C@@H](O)[C@H](OC)C2)CC(=O)[C@H](C)/C=C(\C)[C@@H](O)[C@@H](OC)C(=O)[C@H](C)C[C@H](C)/C=C/C=C/C=C/1C ?
24 h

* * *

# Protocol Details: Rapamycin whole blood pharmacokinetics (HPLC-MS/MS, non-compartmental) in dogs with osteosarcoma
# Type: in vivo, dog
# Details: dog, whole blood; 0.08 mg/kg IM, terminal half-life, median (range), N=4; read-out: T1/2 (converted)
Result Type: half-life (h)
Write down the numeric answer in h and omit the unit.

Which half-life value belongs to CO[C@H]1C[C@@H]2CC[C@@H](C)[C@@](O)(O2)C(=O)C(=O)N2CCCC[C@H]2C(=O)O[C@H]([C@H](C)C[C@@H]2CC[C@@H](O)[C@H](OC)C2)CC(=O)[C@H](C)/C=C(\C)[C@@H](O)[C@@H](OC)C(=O)[C@H](C)C[C@H](C)/C=C/C=C/C=C/1C [rapamycin, Rapamycin] ?
86.6

* * *

# Protocol Details: Rapamycin whole blood pharmacokinetics (HPLC-MS/MS, non-compartmental) in dogs with osteosarcoma
# Format: in vivo, dog
# Details: dog, whole blood, intramuscular; 0.06 mg/kg IM, 48 h after first dose, median (range), N=7; read-out: C48h
Result Type: concentration at 48 h (ng/mL)
Write down the numeric answer in ng/mL and omit the unit.

Which concentration at 48 h value belongs to CO[C@H]1C[C@@H]2CC[C@@H](C)[C@@](O)(O2)C(=O)C(=O)N2CCCC[C@H]2C(=O)O[C@H]([C@H](C)C[C@@H]2CC[C@@H](O)[C@H](OC)C2)CC(=O)[C@H](C)/C=C(\C)[C@@H](O)[C@@H](OC)C(=O)[C@H](C)C[C@H](C)/C=C/C=C/C=C/1C [rapamycin, Rapamycin] ?
3.61

* * *

# Protocol Details: Rapamycin whole blood pharmacokinetics (HPLC-MS/MS, non-compartmental) in dogs with osteosarcoma
# Format: in vivo, dog
# Details: dog; 0.01 mg/kg IM, after first dose, whole blood, median (range), N=3; read-out: AUC0–48
Result Type: AUC(0-t) (ng·h/mL)
Write down the numeric answer in ng·h/mL and omit the unit.

Which AUC(0-t) value belongs to CO[C@H]1C[C@@H]2CC[C@@H](C)[C@@](O)(O2)C(=O)C(=O)N2CCCC[C@H]2C(=O)O[C@H]([C@H](C)C[C@@H]2CC[C@@H](O)[C@H](OC)C2)CC(=O)[C@H](C)/C=C(\C)[C@@H](O)[C@@H](OC)C(=O)[C@H](C)C[C@H](C)/C=C/C=C/C=C/1C ?
47.4

* * *

# Protocol Details: Rapamycin whole blood pharmacokinetics (HPLC-MS/MS, non-compartmental) in dogs with osteosarcoma
# Assay type: in vivo, dog
# Details: dog, whole blood, intramuscular; 0.06 mg/kg IM daily, Day 15 (seven days after cessation), median (range), N=7; read-out: CD15
Result Type: concentration at 15 day (ng/mL)
Write down the numeric answer in ng/mL and omit the unit.

Which concentration at 15 day value belongs to CO[C@H]1C[C@@H]2CC[C@@H](C)[C@@](O)(O2)C(=O)C(=O)N2CCCC[C@H]2C(=O)O[C@H]([C@H](C)C[C@@H]2CC[C@@H](O)[C@H](OC)C2)CC(=O)[C@H](C)/C=C(\C)[C@@H](O)[C@@H](OC)C(=O)[C@H](C)C[C@H](C)/C=C/C=C/C=C/1C ?
1.04
